target: EED (1-441)-His protein (Homo sapiens)
Construct: 30 nM EED (1-441)-His protein
Sequence (O75530 whole entry): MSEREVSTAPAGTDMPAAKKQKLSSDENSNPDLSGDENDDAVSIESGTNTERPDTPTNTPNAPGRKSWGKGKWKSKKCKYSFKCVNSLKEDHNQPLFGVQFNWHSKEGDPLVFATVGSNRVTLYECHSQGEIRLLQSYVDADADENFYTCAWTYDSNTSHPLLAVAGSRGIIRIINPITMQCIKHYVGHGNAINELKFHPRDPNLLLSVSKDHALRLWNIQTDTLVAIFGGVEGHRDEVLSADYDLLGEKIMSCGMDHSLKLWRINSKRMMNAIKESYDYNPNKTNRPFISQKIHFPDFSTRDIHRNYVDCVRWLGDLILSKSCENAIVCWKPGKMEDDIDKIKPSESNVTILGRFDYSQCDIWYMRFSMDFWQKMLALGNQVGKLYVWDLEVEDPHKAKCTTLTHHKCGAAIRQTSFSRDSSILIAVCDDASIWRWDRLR
assay_summary: EED-H3K27Me3 peptide competition binding assay by AlphaScreen
condition_notes: EED-H3K27Me3 peptide competition, AlphaScreen; read-out: (a) IC50 EED Alphascreen binding Qualified
measured_property: IC50 (nM)

[A] COc1cccc(F)c1CNc1ccc(-c2cccnc2C(F)(F)F)c2nncn12
[B] COc1cccc(F)c1CNc1ccc(-c2cnn(C(C)C)c2C)c2nncn12
Task: Name the one with the greater IC50 value, either A or B as given. Lab note: record the label of whichever item you select.
Output: A
(A: 86.9 nM, B: 28.4 nM)

[P] COc1cccc(F)c1CNc1ccc(-c2cc(F)c(N)c(F)c2)c2nncn12
[Q] COc1cccc(F)c1CNc1ccc(-c2cc(C)nn2C)c2nncn12
Task: // max by IC50 over [ P , Q ] // caller expects the label of the chosen entry
Output: P

----------
target: wild type PRC2 (wtPRC2) complex (Homo sapiens, UniProt O75530)
Sequence (O75530 whole entry): as above
Sequence (Q15910 whole entry partner): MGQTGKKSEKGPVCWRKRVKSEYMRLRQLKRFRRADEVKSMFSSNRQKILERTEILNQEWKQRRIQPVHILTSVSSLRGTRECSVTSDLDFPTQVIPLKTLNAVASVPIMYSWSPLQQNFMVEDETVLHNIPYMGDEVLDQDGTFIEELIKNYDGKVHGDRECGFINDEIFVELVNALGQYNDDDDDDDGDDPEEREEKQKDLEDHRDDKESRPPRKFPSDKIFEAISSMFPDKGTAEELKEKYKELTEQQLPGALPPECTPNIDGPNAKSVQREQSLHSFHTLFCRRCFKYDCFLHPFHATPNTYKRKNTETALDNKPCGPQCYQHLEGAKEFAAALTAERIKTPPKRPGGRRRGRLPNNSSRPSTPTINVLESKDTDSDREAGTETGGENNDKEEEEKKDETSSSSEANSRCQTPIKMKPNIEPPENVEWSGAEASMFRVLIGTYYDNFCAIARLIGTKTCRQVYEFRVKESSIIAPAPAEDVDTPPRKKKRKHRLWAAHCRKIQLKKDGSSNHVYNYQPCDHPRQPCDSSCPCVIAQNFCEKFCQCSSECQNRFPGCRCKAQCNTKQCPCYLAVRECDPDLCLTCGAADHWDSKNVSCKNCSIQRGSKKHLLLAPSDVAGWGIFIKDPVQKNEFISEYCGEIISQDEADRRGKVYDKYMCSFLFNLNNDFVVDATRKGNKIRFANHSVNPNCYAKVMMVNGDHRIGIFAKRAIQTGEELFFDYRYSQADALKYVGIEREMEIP
Sequence (Q15022 whole entry partner): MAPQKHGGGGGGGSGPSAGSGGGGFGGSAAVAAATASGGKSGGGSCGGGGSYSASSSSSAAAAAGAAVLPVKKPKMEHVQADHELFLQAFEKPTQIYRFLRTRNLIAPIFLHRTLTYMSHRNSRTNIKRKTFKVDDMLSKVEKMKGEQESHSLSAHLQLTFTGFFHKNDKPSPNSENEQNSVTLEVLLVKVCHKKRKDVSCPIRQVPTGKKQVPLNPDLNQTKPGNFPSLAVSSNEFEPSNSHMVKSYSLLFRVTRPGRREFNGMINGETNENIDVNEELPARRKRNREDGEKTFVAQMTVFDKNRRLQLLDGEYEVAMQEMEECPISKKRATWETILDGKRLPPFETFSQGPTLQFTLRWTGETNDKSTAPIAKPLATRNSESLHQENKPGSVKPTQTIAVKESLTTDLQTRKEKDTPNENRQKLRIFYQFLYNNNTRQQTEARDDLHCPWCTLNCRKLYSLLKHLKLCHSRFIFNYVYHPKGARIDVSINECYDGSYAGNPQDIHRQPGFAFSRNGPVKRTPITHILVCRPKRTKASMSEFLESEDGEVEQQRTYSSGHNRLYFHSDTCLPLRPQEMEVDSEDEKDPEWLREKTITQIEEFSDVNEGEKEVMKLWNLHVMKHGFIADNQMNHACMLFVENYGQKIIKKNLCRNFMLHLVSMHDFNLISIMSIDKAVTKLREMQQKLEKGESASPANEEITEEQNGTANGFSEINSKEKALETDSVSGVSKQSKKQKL
Sequence (Q09028 whole entry partner): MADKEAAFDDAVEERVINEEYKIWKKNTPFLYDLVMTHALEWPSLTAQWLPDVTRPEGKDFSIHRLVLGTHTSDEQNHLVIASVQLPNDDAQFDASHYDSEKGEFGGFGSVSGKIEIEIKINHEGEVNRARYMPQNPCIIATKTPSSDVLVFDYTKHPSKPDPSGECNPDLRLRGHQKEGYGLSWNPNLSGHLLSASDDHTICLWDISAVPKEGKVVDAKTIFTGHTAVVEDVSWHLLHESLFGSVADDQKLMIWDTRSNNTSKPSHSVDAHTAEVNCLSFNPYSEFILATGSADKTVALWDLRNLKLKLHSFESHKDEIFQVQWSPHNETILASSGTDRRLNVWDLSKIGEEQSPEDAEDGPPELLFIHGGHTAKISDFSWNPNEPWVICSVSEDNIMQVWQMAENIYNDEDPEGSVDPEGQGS
Sequence (Q6ZN18 whole entry partner): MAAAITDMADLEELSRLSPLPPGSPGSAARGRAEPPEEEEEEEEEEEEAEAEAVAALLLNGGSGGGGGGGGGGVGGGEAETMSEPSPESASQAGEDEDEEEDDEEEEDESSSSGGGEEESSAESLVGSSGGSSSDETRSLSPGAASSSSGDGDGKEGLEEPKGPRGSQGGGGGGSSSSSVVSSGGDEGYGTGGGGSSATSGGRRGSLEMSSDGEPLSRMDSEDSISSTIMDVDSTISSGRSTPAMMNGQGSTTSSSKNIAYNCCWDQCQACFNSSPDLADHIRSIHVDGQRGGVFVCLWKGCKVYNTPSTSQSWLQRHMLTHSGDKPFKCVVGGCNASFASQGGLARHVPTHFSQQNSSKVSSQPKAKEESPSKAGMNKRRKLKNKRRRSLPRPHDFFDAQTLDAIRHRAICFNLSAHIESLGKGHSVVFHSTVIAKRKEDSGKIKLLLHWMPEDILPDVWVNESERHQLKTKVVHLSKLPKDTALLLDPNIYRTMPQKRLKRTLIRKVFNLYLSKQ
assay_summary: EED LC-MS assay (SAH production by PRC2)
Type: biochemical
condition_notes: PRC2 LC-MS assay; read-out: (b) IC50 EED LC-MS Qualified
pIC50: −log10 of the molar value.
measured_property: pIC50

molecule | pIC50
COc1cccc(F)c1CNc1ccc(-c2cnn(C3CCNCC3)c2)c2nncn12 [Example 225] | 6.83
COc1cccc(F)c1CNc1ccc(-c2cn(C(C)C)nc2C)c2nncn12 [Example 282] | 7.80
COc1cccc(F)c1CNc1ccc(-c2ccnn2C2CC2)c2nncn12 [Example 292] | 6.71
COc1cccc(F)c1CNc1ccc(-c2cncc(F)c2C)c2nncn12 [Example 219] | 6.67
COc1cc(C)c(-c2ccc(NCc3c(F)cccc3OC)n3cnnc23)cn1 [Example 308] | 6.93
COc1cccc(F)c1CNc1ccc(-c2ccc(CCO)nc2)c2nncn12 [Example 183] | 7.38
COc1cccc(F)c1CNc1ccc(-c2ccnn2C(C)C)c2nncn12 [Example 232] | 6.80
COc1ccncc1-c1ccc(NCc2c(F)cccc2OC)n2cnnc12 [Example 190] | 6.62

[P] COc1cccc(F)c1CNc1ccc(-c2cnc(N(C)C)nc2C)c2nncn12 [Example 260]
[Q] COc1cccc(F)c1CNc1ccc(-c2cnn(CCN3CCOCC3)c2)c2nncn12 [Example 226]
Task: Select the item whose pIC50 value is smaller, choosing between P and Q . Return value: the label identifying the chosen record.
Output: Q

[1] COc1cccc(F)c1CNc1ccc(-c2cnccn2)c2nncn12 [Example 325]
[2] COc1cccc(F)c1CNc1ccc(-c2cccnc2C(F)F)c2nncn12 [Example 265]
[3] COc1cc(F)cc(F)c1CNc1ccc(-c2ccc(C(=O)N(C)C)cc2C)c2nncn12 [Example 295]
[4] COc1cccc(F)c1CNc1ccc(-c2cc(C)nn2C)c2nncn12 [Example 288]
Task: Sort low-to-high on pIC50, please. The reply should contain the labels ordered as requested.
Output: 3, 1, 4, 2

[A] COc1cccc(F)c1CNc1ccc(-c2ccc(N3CCCC3=O)nc2)c2nncn12 [Example 215]
[B] COc1cccc(F)c1CNc1ccc(-c2ccccc2Cl)c2nncn12 [Example 192]
Task: Field: entry with larger pIC50 (options A / B ). Your choice should be expressed through its label.
Output: A
(A: 6.83, B: 6.46)
